# system-tested: mTOR enzyme (Homo sapiens, UniProt P42345)
# assay-protocol: mTOR Kinase Assay
# Assay type: biochemical
# test-parameters: rated A-F
Please go through the items and note down their IC50.

In plain terms, Nc1c(Br)c(CNC2CCOCC2)nc2c(-c3cnc4ccccc4c3)cnn12 has a documented IC50 of < 0.1 µM

In plain terms, Nc1c(Br)c(N2CCS(=O)(=O)CC2)nc2c(-c3cnc4ccccc4c3)cnn12 has a documented IC50 of < 0.1 µM

In plain terms, COC(=O)[C@H]1CC[C@@H](c2nc3c(-c4cnc5ccccc5c4)cnn3c(N)c2Br)CN1 (stereo in doubt) has a documented IC50 of 0.101 to 0.2 µM

In plain terms, CC(=O)N1CCC(c2nc3c(-c4cnc5ccccc5c4)cnn3c(N)c2Br)C1 (stereo not shown) has a documented IC50 of < 0.1 µM

In plain terms, N#CCC1CCC(c2nc3c(-c4cnc5ccccc5c4)cnn3c(N)c2Br)CC1 (stereo not shown) has a documented IC50 of < 0.1 µM

In plain terms, Cn1cc(-c2cnn3c(N)c(Br)c(C4CCC(C(=O)O)C4)nc23)cn1 (stereo not shown) has a documented IC50 of 0.101 to 0.2 µM

In plain terms, Nc1c(Br)c([C@H]2CC[C@H](C(=O)O)CC2)nc2c(-c3ccc(-c4cccnc4)nc3)cnn12 has a documented IC50 of < 0.1 µM

In plain terms, CS(=O)(=O)NC(=O)C[C@H]1CC[C@H](c2nc3c(-c4cnc5ccccc5c4)cnn3c(N)c2Br)CC1 has a documented IC50 of < 0.1 µM

In plain terms, COC(=O)C1CCC(c2nc3c(-c4cnn(C)c4)cnn3c(N)c2Br)CN1 (stereo not shown) has a documented IC50 of < 0.1 µM

In plain terms, Nc1c(Br)c([C@H]2CC[C@H]3C(=O)NC(=O)N3C2)nc2c(-c3cnc4ccccc4c3)cnn12 has a documented IC50 of < 0.1 µM

In plain terms, CS(=O)(=O)N1CCC(c2nc3c(-c4cnc5ccccc5c4)cnn3c(N)c2Br)CC1 has a documented IC50 of < 0.1 µM

In plain terms, Nc1c(Br)c(N2CCc3[nH]cnc3C2)nc2c(-c3cnc4ccccc4c3)cnn12 has a documented IC50 of < 0.1 µM

In plain terms, Nc1c(Br)c(CN2CCOCC2)nc2c(-c3cnc4ccccc4c3)cnn12 has a documented IC50 of < 0.1 µM

In plain terms, COC(=O)c1ccc(-c2cc(N)n3ncc(-c4cnc5ccccc5c4)c3n2)cn1 has a documented IC50 of 1 to 5 µM

In plain terms, COC(=O)[C@@H]1CC[C@H](c2cc(N)n3ncc(-c4cnn(C)c4)c3n2)CN1 (stereo in doubt) has a documented IC50 of 0.101 to 0.2 µM

In plain terms, CS(=O)(=O)N1CCC(c2cc(N)n3ncc(-c4cnc5ccccc5c4)c3n2)C1 (stereo not shown) has a documented IC50 of < 0.1 µM
